Origin of the recorded values: patent US20170334899A1

# Tested on: HeLa-MaTu-ADR
# ASSAY_INFO: Proliferation assay (crystal violet), HeLa-MaTu-ADR
# Type: cell-based
# CONDITION_CONTEXT: 96 h; HeLa-MaTu-ADR cells; 4 days incubation; crystal violet staining; read-out: IC50 inhibition of proliferation, HeLa-MaTu-ADR
pIC50: −log10 of the molar value.
PARAMETER: pIC50

Answered examples (10):
| COMPOUND | STUDY_TARGET | NUMERIC_READOUT |
| --- | --- | --- |
| Cc1nsc(Nc2cnc3ccccc3n2)c1C(=O)Nc1cccc(-c2nc(C(C)(C)C)no2)c1 | HeLa-MaTu-ADR | 6.48 |
| Cc1nsc(Nc2cnc(C(F)(F)F)cn2)c1C(=O)Nc1ccc(OC2CCN(CC(F)F)CC2)nc1 | HeLa-MaTu-ADR | 6.96 |
| Cc1nsc(Nc2cnc(C(F)(F)F)cn2)c1C(=O)Nc1ccc(OC2CCN(C(=O)OC(C)(C)C)CC2)nc1 | HeLa-MaTu-ADR | 6.43 |
| Cc1nsc(Nc2ccc(C#N)cn2)c1C(=O)Nc1ccc(C(=O)OC(C)(C)C)cc1 | HeLa-MaTu-ADR | 6.82 |
| Cc1nsc(Nc2cncc(C(F)(F)F)n2)c1C(=O)Nc1ccc(OC2CCN(CC(F)(F)F)CC2)nc1 | HeLa-MaTu-ADR | 6.54 |
| Cc1nsc(Nc2ccc(C#N)cn2)c1C(=O)Nc1ccc(OC2CCCN(C(=O)OC(C)(C)C)C2)nc1 (stereo not shown) | HeLa-MaTu-ADR | 6.48 |
| Cc1nsc(Nc2cnc(C(F)(F)F)cn2)c1C(=O)Nc1ccc(OC2CCN(CCC(F)(F)F)CC2)nc1 | HeLa-MaTu-ADR | 7.24 |
| COCCOc1ccc(NC(=O)c2c(C)nsc2Nc2nc3c(C(F)(F)F)cccc3s2)cc1F | HeLa-MaTu-ADR | 6.43 |
| Cc1nsc(Nc2cncc(C(F)(F)F)n2)c1C(=O)Nc1ccc(OC2CCN(C(=O)OC(C)(C)C)CC2)nc1 | HeLa-MaTu-ADR | 6.19 |
| Cc1nsc(Nc2ccc(C#N)cn2)c1C(=O)Nc1ccc(OC2CCN(C(=O)OC(C)(C)C)CC2)nc1 | HeLa-MaTu-ADR | 6.60 |

a: Cc1nsc(Nc2cnc(C(F)(F)F)cn2)c1C(=O)Nc1ccc(C(=O)OC(C)(C)C)cc1
b: Cc1nsc(Nc2cnc(C(F)(F)F)cn2)c1C(=O)Nc1ccc(OCC2CCN(C(=O)OC(C)(C)C)C2)nc1 (stereo not shown)
c: Cc1nsc(Nc2ccc(C#N)cn2)c1C(=O)Nc1ccc(OC2CCCN(CC(F)F)C2)nc1 (stereo not shown)
[Q] Form: Sort by [pIC50] Order [ ascending ] Give the labels in the order specified.
[A] c, a, b
(c: 6.09, a: 6.39, b: 6.77)

---

# Test system: human cervical tumor cell line HeLa (ATCC CCL-2)
# ASSAY_INFO: SAC-Formation - Nocodazole-Induced Assay
# Format: cell-based
# CONDITION_CONTEXT: Homo sapiens, HeLa, 24 h, HeLa cells, nocodazole 0.1 μg/ml together with test compound, decrease of mitotic cells (phospho-histone H3 Ser10)
pIC50: −log10 of the molar value.
PARAMETER: pIC50

| COMPOUND | pIC50 |
| --- | --- |
| Cc1nsc(Nc2cnc(C(F)(F)F)cn2)c1C(=O)Nc1ccc(OC2CCN(CC(F)(F)F)C2)nc1 (stereo not drawn) [Example 297] | 7.10 |
| Cc1nsc(Nc2cnc(C(F)(F)F)cn2)c1C(=O)Nc1ccc(C2CCN(CC(F)(F)F)CC2)nc1 [Example 358] | 7.52 |
| Cc1nsc(Nc2cncc(C(F)(F)F)n2)c1C(=O)Nc1ccc(OCCCO)nc1 [Example 278] | 6.72 |
| Cc1nsc(Nc2ccc(C#N)cn2)c1C(=O)Nc1ccc(Oc2cccc(C(F)(F)F)c2)nc1 [Example 118] | 6.96 |
| Cc1nsc(Nc2ccc(C#N)cn2)c1C(=O)Nc1ccc(N[C@@H](C)C(=O)OC(C)(C)C)nc1 [Example 170] | 5.64 |
| Cc1nsc(Nc2cnc(C(F)(F)F)cn2)c1C(=O)Nc1ccc(OCC2CCN(C(=O)OC(C)(C)C)C2)nc1 (stereo not drawn) [Example 109] | 8.15 |

A: Cc1nsc(Nc2cnc3ccccc3n2)c1C(=O)Nc1cccc(NC(=O)C(F)(F)F)c1 [Example 432]
B: Cc1nsc(Nc2cnc(C(F)(F)F)cn2)c1C(=O)Nc1ccc(OC2CCN(C(CF)CF)CC2)nc1 [Example 324]
C: Cc1nsc(Nc2cnc3ccccc3n2)c1C(=O)Nc1cccc(C(=O)N2CCN(CCc3ccccn3)CC2)c1 [Example 94]
D: Cc1nsc(Nc2cnc(C(F)(F)F)cn2)c1C(=O)Nc1ccc(F)c(OC[C@H]2CCCN(CC(F)(F)F)C2)c1 [Example 419]
[Q] Form: Sort by [pIC50] Order [ ascending ] Give the labels in the order specified.
[A] C, A, B, D
(C: 6.03, A: 6.77, B: 7.15, D: 7.42)

---

Property: IC50; scope: individual compounds
# STUDY_TARGET: human kinase Mps-1 (Homo sapiens)
# Construct: N-terminally GST-tagged human full length recombinant Mps-1 kinase; GST (N)
# Sequence (P33981 whole entry): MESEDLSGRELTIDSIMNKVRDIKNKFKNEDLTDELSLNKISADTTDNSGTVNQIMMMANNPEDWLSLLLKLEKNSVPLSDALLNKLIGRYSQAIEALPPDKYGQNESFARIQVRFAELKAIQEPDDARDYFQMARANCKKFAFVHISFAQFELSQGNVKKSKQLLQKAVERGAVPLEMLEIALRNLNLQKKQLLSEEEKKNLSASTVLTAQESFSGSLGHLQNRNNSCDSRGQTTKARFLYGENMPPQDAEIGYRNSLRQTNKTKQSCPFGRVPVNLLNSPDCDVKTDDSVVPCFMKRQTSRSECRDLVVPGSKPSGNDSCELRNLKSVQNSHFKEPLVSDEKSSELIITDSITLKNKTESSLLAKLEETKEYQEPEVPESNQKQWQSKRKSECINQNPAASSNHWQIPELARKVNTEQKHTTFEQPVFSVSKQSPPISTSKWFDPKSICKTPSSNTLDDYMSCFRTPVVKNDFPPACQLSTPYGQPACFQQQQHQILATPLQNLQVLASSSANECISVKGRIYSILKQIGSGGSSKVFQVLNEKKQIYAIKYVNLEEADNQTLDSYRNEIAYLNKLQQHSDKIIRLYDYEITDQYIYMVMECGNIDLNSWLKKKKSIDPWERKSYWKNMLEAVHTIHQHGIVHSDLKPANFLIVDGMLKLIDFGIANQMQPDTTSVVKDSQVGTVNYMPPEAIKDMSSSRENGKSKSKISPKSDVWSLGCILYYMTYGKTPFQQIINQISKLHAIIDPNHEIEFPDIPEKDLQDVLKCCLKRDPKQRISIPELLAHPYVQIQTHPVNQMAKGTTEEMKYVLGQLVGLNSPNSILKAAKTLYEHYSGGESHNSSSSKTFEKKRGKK
# ASSAY_INFO: Mps-1 kinase assay (TR-FRET)
# CONDITION_CONTEXT: Mps-1 TR-FRET kinase assay; avg; read-out: Mps1 avg (IC50 [mol/l])

| COMPOUND | IC50 |
| --- | --- |
| Cc1nsc(Nc2nc3c(C(F)(F)F)cccc3s2)c1C(=O)Nc1ccc(OCCO)nc1 | ≥ 20 µM |
| Cc1noc(-c2cccc(NC(=O)c3c(C)nsc3Nc3cnc4ccccc4n3)c2)n1 | ≥ 20 µM |
| Cc1nsc(Nc2cnc(C(F)(F)F)cn2)c1C(=O)Nc1ccc(C(=O)O)cc1 | ≥ 20 µM |
| Cc1nsc(Nc2cc(C#N)ccn2)c1C(=O)Nc1ccc(OCCCNCC(F)F)nc1 | ≥ 20 µM |

Lookup result for `Cc1nsc(Nc2cnc3ccccc3n2)c1C(=O)Nc1ccc(C(=O)N2CCN(CC(F)F)CC2)cc1` ; measured IC50: > 20 µM

Lookup result for `Cc1nsc(Nc2cnc(C(F)(F)F)cn2)c1C(=O)Nc1ccc(C(=O)NC2CN(CC(F)(F)F)C2)cc1` ; measured IC50: > 20 µM

---

# STUDY_TARGET: CDK2/CycE (Homo sapiens)
# Construct: GST
# ASSAY_INFO: CDK2/CycE kinase assay (TR-FRET)
# CONDITION_CONTEXT: avg, read-out: CDK2 avg (IC50 [mol/l])
pIC50: −log10 of the molar value.
PARAMETER: pIC50

| COMPOUND | PARAMETER | RESULT |
| --- | --- | --- |
| COC(=O)CCc1cccc(NC(=O)c2c(C)nsc2Nc2ccc(C#N)cn2)c1 | pIC50 | < 4.70 |
| Cc1nsc(Nc2cnc(C(F)(F)F)cn2)c1C(=O)Nc1ccc(F)c(OC[C@@H]2CCCN(CCC(F)(F)F)C2)c1 | pIC50 | < 4.70 |
| Cc1nsc(Nc2cnc3ccccc3n2)c1C(=O)Nc1cccc(C(=O)OC(C)(C)C)c1 | pIC50 | ≤ 4.70 |
| Cc1nsc(Nc2cnc(C(F)(F)F)cn2)c1C(=O)Nc1ccc(OCC2CCN(CC(F)F)CC2(F)F)nc1 (centres unmarked) | pIC50 | < 4.70 |
| CNC(=O)c1ccc(NC(=O)c2c(C)nsc2Nc2cnc3ccccc3n2)cc1F | pIC50 | < 4.70 |
| CCNC(=O)c1cccc(NC(=O)c2c(C)nsc2Nc2ccc(C#N)cn2)c1 | pIC50 | < 4.70 |
| Cc1nsc(Nc2cnc(C(F)(F)F)cn2)c1C(=O)Nc1ccc(F)c(OCC2CCN(CC(F)(F)F)C2)c1 (centres unmarked) | pIC50 | < 4.70 |

Pending compound:
Param item: `Cc1nsc(Nc2ccc(C#N)cn2)c1C(=O)Nc1ccc(OC2CCN(C(=O)OC(C)(C)C)CC2)nc1` ; param system: CDK2/CycE (Homo sapiens); output pIC50: ≤ 4.70

---

# Test system: HeLa
# ASSAY_INFO: Proliferation assay (crystal violet), HeLa
# Assay type: cell-based
# CONDITION_CONTEXT: Homo sapiens, HeLa, 96 h, HeLa cells; 4 days incubation; crystal violet staining; read-out: IC50 inhibition of proliferation, HeLa
PARAMETER: IC50 (nM)

Answered examples (6):
| COMPOUND | STUDY_TARGET | UNIT_TEXT | IC50 |
| --- | --- | --- | --- |
| Cc1nsc(Nc2cnc3ccccc3n2)c1C(=O)Nc1cccc(NC(=O)OC(C)(C)C)c1 [Example 178] | HeLa | nM | 3300 |
| CCCN1CC[C@@H](Oc2ccc(NC(=O)c3c(C)nsc3Nc3cnc(C(F)(F)F)cn3)cn2)[C@@H](F)C1 [Example 140] | HeLa | nM | 220 |
| Cc1nsc(Nc2cncc(C(F)(F)F)n2)c1C(=O)Nc1ccc(C(=O)NC2CCN(CC(F)(F)F)CC2)cc1 [Example 167] | HeLa | nM | 4300 |
| Cc1nsc(Nc2cnc(C(F)(F)F)cn2)c1C(=O)Nc1ccc(OC2CCCN(CC(F)F)C2)nc1 (stereo not drawn) [Example 330] | HeLa | nM | 1200 |
| Cc1nsc(Nc2ccc(C#N)cn2)c1C(=O)Nc1ccc(OC[C@H]2CCN(CC(F)(F)F)C2)nc1 [Example 405] | HeLa | nM | 440 |
| Cc1nsc(Nc2cncc(C(F)(F)F)n2)c1C(=O)Nc1ccc(F)c(OC2CCN(CCC(F)(F)F)CC2)c1 [Example 343] | HeLa | nM | 1400 |

1: Cc1nsc(Nc2cnc(C(F)(F)F)cn2)c1C(=O)Nc1ccc(OC[C@H]2CCN(CC(F)F)C2)nc1 [Example 132]
2: Cc1nsc(Nc2cncc(C(F)(F)F)n2)c1C(=O)Nc1ccc(OCC2CCN(C(=O)OC(C)(C)C)C2)nc1 (stereo not drawn) [Example 110]
3: Cc1nsc(Nc2cnc3ccccc3n2)c1C(=O)Nc1cccc(C(=O)NC(C)C)c1 [Example 253]
4: Cc1nsc(Nc2cnc(C(F)(F)F)cn2)c1C(=O)Nc1ccc(O[C@@H]2CCN(CC(F)F)C[C@H]2F)nc1 [Example 366]
[Q] Please list these compounds in decreasing order of IC50. Give the labels in the order specified.
[A] 3, 2, 1, 4

1: Cc1nsc(Nc2cncc(C(F)(F)F)n2)c1C(=O)Nc1ccc(OCCN(C)C(=O)OC(C)(C)C)nc1 [Example 430]
2: Cc1nsc(Nc2cnccn2)c1C(=O)Nc1ccc(OCCCN)nc1 [Example 48]
[Q] Smaller IC50 value, 1 vs 2 ? Reply with the label of the item you choose.
[A] 1
(1: 920 nM, 2: 10000 nM)
